- Test system: RXF 393 renal
- Experiment notes: NCI tumour cell line growth inhibition, 48 h
Label fulfilled when TGI >= 40 µM; otherwise not fulfilled.

{"columns": ["Compound", "Measurement target", "Label value"],
 "data": [
  ["CCn1c(-c2cc3ccccc3cc2OC(C)=O)n[nH]c1=S", "RXF 393 renal", "not fulfilled"],
  ["COc1ccc2c3c(c4cc(OC)c(OC)cc4c2c1)CN1CCC[C@H]1[C@@H]3O", "RXF 393 renal", "not fulfilled"],
  ["Cc1c(C)c2c(c(N)c1C#N)C(=O)N(NC(=S)Nc1ccccc1)C2=O", "RXF 393 renal", "fulfilled"],
  ["Fc1nc(Sc2ncnc3nc[nH]c23)nc(-c2c3ccccc3c3sc4ccccc4n23)n1", "RXF 393 renal", "fulfilled"],
  ["CC(=O)CCN1CC2CN=NC2(C#N)C1 (stereo not given)", "RXF 393 renal", "fulfilled"],
  ["O=c1c2ccccc2n2nnc3ccc(NCCNCCO)c1c32", "RXF 393 renal", "not fulfilled"],
  ["COc1cc([C@H]2c3cc4c(cc3[C@H](NCc3ccc(F)cc3)C3COC(=O)[C@H]32)OCO4)cc(OC)c1O (stereo not given in full)", "RXF 393 renal", "fulfilled"],
  ["CC(C)(C)c1cc(C(C)(C)C)c2sc(=O)oc2c1O", "RXF 393 renal", "not fulfilled"],
  ["COc1cc(C(=O)/C=C/c2c(C)n([O-])c3ccc(Cl)cc3[n+]2=O)cc(OC)c1OC", "RXF 393 renal", "fulfilled"],
  ["O=C([CH-]C(=O)c1ccccc1)c1ccccc1.[CH2-]C.[CH2-]C.[Tl+3]", "RXF 393 renal", "fulfilled"]
]}

----------
- Tested on: MCF7 breast
- Experiment notes: NCI tumour cell line growth inhibition, 48 h
Measured property: TGI

{"columns": ["Compound", "Data value"],
 "data": [
  ["Cc1cc(C)n(C(C)(C(=O)Cc2ccccc2)n2nc(C)cc2C)n1", "> 100 µM"],
  ["COC(=O)[C@]1(c2cc3ccccc3[nH]2)CC2CNC1C1OC(C)(C)OC21 (stereo partly drawn)", "> 100 µM"],
  ["C=C(CCC(=O)N(CCc1c[nH]c2ccccc12)C(=O)c1ccccc1CSCC)C(=O)OC", "> 100 µM"]
]}

----------
- Tested on: SN12C renal
- Experiment notes: NCI tumour cell line growth inhibition, 48 h
Below, each entry is listed alongside its reported GI50.

{"columns": ["Molecule", "GI50"],
 "data": [
  ["CN(Cc1cnc2nc(N)nc(N)c2n1)c1c(Cl)cc(C(=O)NC(CCC(=O)O)C(=O)O)cc1Br (configuration not stated)", "< 0.01 µM"],
  ["CCCCCCC1CCCCN1C(c1ccccc1)C(O)c1ccccc1 (configuration not stated)", "6.5 µM"],
  ["COc1ccc([C@H]2c3[nH]c4ccccc4c3C[C@H]3C(=O)N(CCCCCCC(=O)NO)CC(=O)N23)cc1", "4.19 µM"],
  ["O=C(/C=C/c1ccccn1)c1ccccc1", "4.33 µM"],
  ["Cn1cc(C2=C(c3cccc([N+](=O)[O-])c3)C(=O)NC2=O)c2ccccc21", "9.61 µM"],
  ["Cc1nc2sc(C(=O)Nc3cccc(Cl)c3)c(N)c2cc1C(O)c1ccccc1 (configuration not stated)", "0.976 µM"],
  ["C#CCN(CCCOc1ccc(Cl)cc1Cl)CCCSC(=O)CCCCCN1/C(=C\\C=C2/CCCC(/C=C/C3=[N+](CCCCCC(=O)[O-])c4ccccc4C3(C)C)=C2Cl)C(C)(C)c2ccccc21", "0.587 µM"]
]}

Sourced from PubChem BioAssay (NCI)
